# assayedTarget: SARS-COV-2 RBD extracellular domain expressed with a C-terminal myc-myc-hexahistidine tag (SARS-CoV-2)
# testSummary: SPR (Biacore), mAb captured by anti-human Fc, RBD-mmH in solution, 25 C
Consider the following binders and their measured kon readings.
Just the number please, in M⁻¹ s⁻¹, no unit attached.

Would you please look over these solved cases?
// query I'd like to know its kon. The binder in question is mAb14281 (antibody, V domains shown) VH: QVQLVQSGADVKKPGASVKVSCKTSGYIFTGYYIHWVRQAPGQGLEWMGWINPNSGGTNSAQKFQGRVTMTRDTSISTVYMELSRLRSDDTAVYYCAKSNSFSVLDYNFDYWGQGTLVTVSS VL: SSELTQDPAVSVALGQTVRITCQGDSLRSYYASWYQQKPGQAPVLVIYDKNNRPSGIPDRFSGSSSGNTASLTITGAQAEDEADYYCNSRDSSRNHLVVFGGGTKLTVLG
// result 1.1e+06

// query Same for mAb14230 (antibody, V domains shown) VH: EVQLVESGGGLIQPGRSLRLSCAASGFTFDDYAMHWVRQAPGKGLEWVSGISWNSVSIDYADSVKGRFTISRDNAKNSLYLQMTSLTVEDTALYYCAKAFGYETLTGSDYFAYWGPGTLVTVSS VL: EIVLTQSPGTLSLSPGERATLSCRASQTVISTYLAWYQQKPGQSPRLLIYGASSRATGIPDRFSGSGSGTDFTLTISRLEPEDFAVYYCQQYGSSPQLTFGGGTKVEIKR
// result 1.13e+06

// query Same for mAb14312 (antibody, V domains shown) VH: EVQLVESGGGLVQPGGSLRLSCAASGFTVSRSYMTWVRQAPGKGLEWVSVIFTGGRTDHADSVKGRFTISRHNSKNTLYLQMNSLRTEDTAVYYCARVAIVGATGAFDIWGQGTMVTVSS VL: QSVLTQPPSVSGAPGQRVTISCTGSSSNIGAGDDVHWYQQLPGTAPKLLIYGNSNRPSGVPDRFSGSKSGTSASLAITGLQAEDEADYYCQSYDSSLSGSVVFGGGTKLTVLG
// result 1.53e+06

Switching to the query record.
// query I'd like to know its kon. The binder in question is mAb14280 (antibody, V domains shown) VH: QVQLVQSGAEVKKPGASVRVSCKASGYTFTGNYIHWVRQAPGQGLEWMAWINPNSGGKNYAQKFQGRVTLTRDTSVNTAYMELSRLRSDDTAMYYCARDVNYNILTGPGGLWGQGTLVTVSS VL: QSALTQPPSASGSPGQSVTISCTGTSSDVGGYNFVSWYQQHPGKAPKLMIYEVSKRPSGVPDRFSGSKSGNTASLTVSGLQAEDEADYYCSSYAGSNNFVFGTGTKVTVLG
// result 1.66e+06
